# STUDY_SYSTEM: VZV polymerase (Varicella-zoster virus, UniProt P09252)
# Sequence (P09252 whole entry): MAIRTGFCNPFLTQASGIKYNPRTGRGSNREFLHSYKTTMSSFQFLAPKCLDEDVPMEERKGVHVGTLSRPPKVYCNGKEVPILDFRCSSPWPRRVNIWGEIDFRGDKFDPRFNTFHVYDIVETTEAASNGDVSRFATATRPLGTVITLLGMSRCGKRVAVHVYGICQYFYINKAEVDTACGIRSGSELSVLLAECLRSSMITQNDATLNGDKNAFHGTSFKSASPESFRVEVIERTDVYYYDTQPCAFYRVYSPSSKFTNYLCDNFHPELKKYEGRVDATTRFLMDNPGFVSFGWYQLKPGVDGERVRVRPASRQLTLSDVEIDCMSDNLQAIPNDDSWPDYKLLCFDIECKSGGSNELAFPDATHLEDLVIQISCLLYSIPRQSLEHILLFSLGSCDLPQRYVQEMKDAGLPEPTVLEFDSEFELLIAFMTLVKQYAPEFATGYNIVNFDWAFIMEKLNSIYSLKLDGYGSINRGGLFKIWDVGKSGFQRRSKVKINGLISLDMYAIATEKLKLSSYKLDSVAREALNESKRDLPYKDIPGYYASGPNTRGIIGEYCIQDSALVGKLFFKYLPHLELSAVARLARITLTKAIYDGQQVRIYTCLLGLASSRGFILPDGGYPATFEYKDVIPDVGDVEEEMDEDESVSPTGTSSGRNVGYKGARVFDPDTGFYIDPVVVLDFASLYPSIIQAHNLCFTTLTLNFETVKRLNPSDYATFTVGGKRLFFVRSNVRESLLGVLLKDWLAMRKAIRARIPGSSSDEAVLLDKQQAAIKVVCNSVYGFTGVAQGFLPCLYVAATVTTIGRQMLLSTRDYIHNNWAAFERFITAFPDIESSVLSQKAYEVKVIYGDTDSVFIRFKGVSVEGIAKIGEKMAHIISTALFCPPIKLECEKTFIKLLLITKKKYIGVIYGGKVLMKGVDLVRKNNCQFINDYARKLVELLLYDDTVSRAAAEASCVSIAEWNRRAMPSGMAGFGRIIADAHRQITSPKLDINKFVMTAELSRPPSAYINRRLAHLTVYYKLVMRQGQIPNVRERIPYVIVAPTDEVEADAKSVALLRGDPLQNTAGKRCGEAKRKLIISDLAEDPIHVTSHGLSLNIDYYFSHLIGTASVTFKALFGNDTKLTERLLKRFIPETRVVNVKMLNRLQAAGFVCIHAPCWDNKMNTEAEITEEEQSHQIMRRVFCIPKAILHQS
# EXPERIMENT_NOTES: VZV polymerase assay (procedure similar to the HCMV polymerase SPA)
# Type: biochemical
# ASSAY_CONTEXT: Table 1, read-out: Antiviral Selective Polymerase IC50 Values, VZV
PROPERTY: pIC50
Here pIC50 is given on a logarithmic scale as minus log10 of the concentration in mol/L.

Input: Can you look up the measured pIC50 of CN(C)c1ccc2ncc(C(=O)NCc3ccc(Cl)cc3)c(O)c2c1 for me?
Output: 5.12

Input: Can you look up the measured pIC50 of O=C(NCc1ccc(Cl)cc1)c1cnc2c(F)c(F)c(F)c(F)c2c1O for me?
Output: 5.44

Input: Can you look up the measured pIC50 of CC(=O)Nc1ccc2ncc(C(=O)NCc3ccc(Cl)cc3)c(O)c2c1 for me?
Output: 4.59

Input: Can you look up the measured pIC50 of CS(=O)(=O)OCCCc1cc(F)c2ncc(C(=O)NCc3ccc(Cl)cc3)c(O)c2c1 for me?
Output: 5.68

Input: Can you look up the measured pIC50 of O=C(NCc1ccc(Cl)cc1)c1cnc2cc(C(F)(F)F)ccc2c1O for me?
Output: 4.88

Next:
Input: Can you look up the measured pIC50 of O=C(NCc1ccc(Cl)cc1)c1cnc2cc(F)ccc2c1O for me?
Output: 5.60

Input: Can you look up the measured pIC50 of COc1cc(CCCO)cc2c(O)c(C(=O)NCc3ccc(Cl)cc3)cnc12 for me?
Output: 7.10

Input: Can you look up the measured pIC50 of CC(=O)Nc1ccc2c(O)c(C(=O)NCc3ccc(Cl)cc3)cnc2c1 for me?
Output: 5.08
